subject_of_test: T1, CAPRIN-1 protein expressed on the membrane surface of human cancer cells (human, UniProt Q14444 2-709)
T1 sequence (looked up): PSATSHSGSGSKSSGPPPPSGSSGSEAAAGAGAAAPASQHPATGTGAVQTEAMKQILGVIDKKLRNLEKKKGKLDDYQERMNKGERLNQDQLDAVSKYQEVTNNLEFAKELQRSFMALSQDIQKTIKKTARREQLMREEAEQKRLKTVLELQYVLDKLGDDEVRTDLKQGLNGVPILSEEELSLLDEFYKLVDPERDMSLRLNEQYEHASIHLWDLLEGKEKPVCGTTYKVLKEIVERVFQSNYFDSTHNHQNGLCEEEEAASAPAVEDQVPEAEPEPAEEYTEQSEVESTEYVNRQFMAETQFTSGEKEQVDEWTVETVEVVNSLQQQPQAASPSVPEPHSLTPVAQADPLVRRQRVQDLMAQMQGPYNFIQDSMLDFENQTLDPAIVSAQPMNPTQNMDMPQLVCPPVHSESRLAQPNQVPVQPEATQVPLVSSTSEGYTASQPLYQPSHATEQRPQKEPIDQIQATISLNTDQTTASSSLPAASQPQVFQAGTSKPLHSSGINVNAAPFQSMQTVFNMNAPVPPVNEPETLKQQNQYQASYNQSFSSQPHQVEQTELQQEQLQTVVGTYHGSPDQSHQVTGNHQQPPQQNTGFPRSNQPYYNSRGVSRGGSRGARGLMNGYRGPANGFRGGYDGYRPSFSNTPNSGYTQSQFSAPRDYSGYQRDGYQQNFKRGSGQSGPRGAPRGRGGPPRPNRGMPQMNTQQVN
assay_explanation: cell-based or functional assay
What ADCC cytotoxic activity (51Cr release) on Hep3B was measured for each of the following?

- binder: "humanized antibody #8 (antibody, V domains shown) VH: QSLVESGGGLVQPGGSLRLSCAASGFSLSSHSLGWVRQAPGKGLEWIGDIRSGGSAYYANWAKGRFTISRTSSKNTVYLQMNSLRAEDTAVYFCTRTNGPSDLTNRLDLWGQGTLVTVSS VL: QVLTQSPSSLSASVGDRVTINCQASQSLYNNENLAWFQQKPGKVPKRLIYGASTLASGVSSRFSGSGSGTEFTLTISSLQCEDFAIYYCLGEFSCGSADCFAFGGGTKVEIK"
  test_value: "≥ 21%"

Dear colleague, could you send me ADCC cytotoxic activity (51Cr release) on Hep3B for each of the items below? Thanks.
1. humanized antibody #4 (antibody, V domains shown) VH: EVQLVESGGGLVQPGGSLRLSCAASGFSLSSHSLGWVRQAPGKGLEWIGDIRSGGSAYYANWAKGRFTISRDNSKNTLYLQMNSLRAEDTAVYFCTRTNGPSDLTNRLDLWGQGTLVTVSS VL: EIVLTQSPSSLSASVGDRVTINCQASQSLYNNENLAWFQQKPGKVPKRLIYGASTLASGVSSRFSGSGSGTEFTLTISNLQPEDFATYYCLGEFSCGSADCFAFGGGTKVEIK
2. humanized antibody #7 (antibody, V domains shown) VH: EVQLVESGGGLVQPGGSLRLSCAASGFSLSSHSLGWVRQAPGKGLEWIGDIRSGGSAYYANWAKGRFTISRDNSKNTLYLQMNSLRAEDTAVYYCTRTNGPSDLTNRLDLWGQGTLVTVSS VL: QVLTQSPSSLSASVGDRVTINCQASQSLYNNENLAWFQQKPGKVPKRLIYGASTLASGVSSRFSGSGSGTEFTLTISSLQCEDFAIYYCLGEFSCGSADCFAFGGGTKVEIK
3. humanized antibody #9 (antibody, V domains shown) VH: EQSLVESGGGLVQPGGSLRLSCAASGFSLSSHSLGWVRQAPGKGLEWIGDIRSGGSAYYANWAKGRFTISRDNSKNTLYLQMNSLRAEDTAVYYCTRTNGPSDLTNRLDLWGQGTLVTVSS VL: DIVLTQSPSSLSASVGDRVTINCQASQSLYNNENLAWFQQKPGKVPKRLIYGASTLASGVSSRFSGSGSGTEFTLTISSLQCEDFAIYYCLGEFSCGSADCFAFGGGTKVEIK
4. humanized antibody #2 (antibody, V domains shown) VH: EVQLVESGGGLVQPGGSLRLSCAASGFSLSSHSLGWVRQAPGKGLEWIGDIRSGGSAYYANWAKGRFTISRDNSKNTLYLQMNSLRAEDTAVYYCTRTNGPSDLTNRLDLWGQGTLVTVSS VL: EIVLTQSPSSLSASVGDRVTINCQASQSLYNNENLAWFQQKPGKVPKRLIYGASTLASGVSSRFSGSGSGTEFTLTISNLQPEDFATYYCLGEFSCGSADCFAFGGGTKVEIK

## Result
1. ≥ 25%
2. ≥ 28%
3. ≥ 21%
4. ≥ 25%
